Provenance of the data: PubChem BioAssay (NCI)

- assay.overview: NCI Yeast Anticancer Drug Screen. Data for the sgs1 mgt1 strain (AID 161);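 note: 0% = growth of cultures given vehicle only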
- condition.set: S. cerevisiae sgs1 mgt1 strain, at 50.0 µM, active compounds read high
The panel holds about 79,000 compounds, 15% with a hit somewhere; the sample as a whole holds those more often.
Each entry below carries its reported growth inhibition.
measured.property: growth inhibition (%)

• O=C(O)COc1ccccc1-c1ccccc1 = -10.6
• Cc1nc2ccccc2c(=O)n1NC(=S)Nc1ccc(Cl)cc1 = 4.25
• C[C@@H]1C[C@@H]2C(=O)N(c3ccccc3)C(=O)[C@@H]2c2[nH]c3ccc(Br)cc3c21 = 15.8
• O=C(c1ccco1)N(C(=S)N1CCN(c2ccccc2)CC1)C1CCCCC1 = 26.4
• NC(=S)N=Nc1c(O)[nH]c2c(Cl)cc(Cl)cc12 = 28.6
• CC/C=C\C/C=C\C/C=C\CCCCCCCC(=O)OC(COC(=O)CCCCCCCCCCCCCCCCC)COC1OC(CO)C(O)C(O)C1O (stereo unspecified) = 31.8
• Cc1cc(C)cc(C(=O)NCc2ccc[n+]([O-])c2)c1 = -6.35
• C=CC1(c2ccc3ccccc3c2)OCC(CC)(CC)CO1 = -3.6
• Cc1ccc(S(=O)(=O)CCOC(=O)Nc2ccccc2)cc1 = 1.7
• CCNC(=S)Nc1ccc(Cl)cc1 = 39
• CC(=O)c1c(-c2ccc(Cl)cc2)c(C#N)c(=S)n(C2OC(CO)C(O)C(O)C2O)c1C (stereo unspecified) = 6.15

* * *

- assay.overview: NCI Yeast Anticancer Drug Screen. Data for the mec2-1 strain (AID 157)
- condition.set: S. cerevisiae mec2-1 strain, at 50.0 µM, active compounds read high
- Experimental: Growth inhibition of yeast strains with defined genetic alterations is measured as a screen for potential anti-cancer activity. Selected strains with alterations in DNA damage repair or cell cycle control were exposed to compounds and growth inhibition was measured relative to vehicle treated controls. The strain used in this assay is mec2-1
Compounds without any hit were thinned out: in the full panel of roughly 79,000, 15% have a hit. Where a SMILES comes first, the peptide text is derived from it.
Each entry below carries its reported growth inhibition.
measured.property: growth inhibition (%)

• COC(=O)C1CCC[P+]1(C)C (configuration not stated) = 41.7
• Cc1ccc(NC(=O)CCC(=O)C(C)C(=O)c2ccccc2)cc1C (configuration not stated) = -7.6
• CCN(CC)C(=O)c1ccncc1C(=O)c1ccncc1 = -3.55
• COc1c2c(c(OC)c(C(C)=O)c1OC(=O)c1ccccc1)CCO2 = -14.4
• O=C(Nc1ccc(S(=O)(=O)Nc2nccs2)cc1)c1cccnc1Nc1cccc(Cl)c1 = 8.5
• CCC(CO)c1ccccc1 (configuration not stated) = -17.7
• COC(=O)C(NC(=O)C(NC(=O)C(N)C(C)C)C(C)C)C(C)C (stereo not drawn) (H-Val-Val-Val-OMe; configuration not given here) = 20.6
• COc1cc(C2SCC(=O)N2c2ccc(-n3c(-c4ccccc4)nc4ccccc4c3=O)cc2)cc(OC)c1OC (configuration not stated) = -8.85
• CC1=C(C(=O)O)CCCO1 = 7.75
• COC(=O)c1nc(N)nc(C(=O)OC)c1C(=O)c1ccc([N+](=O)[O-])cc1 = -23.6
• CCOC(=O)CSC(=O)NCCCl = -0.5
• Cc1cccc2c1Oc1ccccc1C2N1C(=O)/C(=C/c2ccc(Cl)c(Cl)c2)SC1=S (configuration not stated) = -10.2
• CNC1C(=O)C(C)C(O)(C(CC(C)C(O)/C=C/C=C/CNC(=O)C(C)(C)C(O)\C(C)=C/C=C\C=C\Cc2cnc(C)o2)OC)C12C(=O)OC2COC (configuration not stated) (tested in a mixture with another compound) = -22.1
• O=c1[nH]cnc2c1CNC2 = -2.5
• C=CC(O)CCCCCC (configuration not stated) = -27.8
• COc1ccc(/C(C)=N/OC(=O)c2sc3ccccc3c2Cl)cc1CN1CCOCC1 = -23.9
• Cc1cc(C(=O)O)c2c([nH]1)c(C)cc1nc3ccccc3c12 = 5.65
• O=c1[nH]nc(Cc2ccccc2)n1/N=C\c1ccccc1 = -20.6
• Cn1cnc(=S)c2ccccc21 = -12.8
• CC1SC2=NC3=C(c4ccccc4C3=O)C(c3ccc(Br)cc3)N2C1=O (configuration not stated) = -15.9
• CC(=O)OCC1OC(n2c(=O)n(-c3ccccc3)c(=O)c3ccccc32)C(OC(C)=O)C(OC(C)=O)C1OC(C)=O (configuration not stated) = 11.3
• COc1ccc(OCOCOc2ccc(OC)cc2)cc1 = 9.5
